molecular target: T1, M1′ peptide 5 (human); assay: ELISA on coated antigen, relative OD450/650
T1 peptide: RAPDRVLCHSGQQQG
Observable: binding result

murine anti-IgE/M1′ antibody 7A6 (antibody, V domains shown, mIgG1 hybridoma antibody; also called mu7A6; 7A6 mIgG1) VH: QVQLQQSGAELVRPGASVTLSCKASGYTFIDYEMHWVKQTPVHGLEWIGAIDPETGTTAYNQKFKGKATLTAAKSSSTAYMELRSLTSEDSAVYYCTRLRPHYDYDNAMDSWGQGTTLTVSS VL: DIVMSQSPSSLTVSVGEKVTLSCKSSQTLLYSTNQKNYLAWYQQKPGQSPKLLIYWASTRESGVPDRFTGSGSGTDFTLTISSVKAEDLAVYYCQQYYSYPYTFGGGTKVEIKR : binds
humanized anti-IgE/M1′ antibody 47H4.v5 (antibody, V domains shown, huIgG1; also called 47H4v5 huIgG1; 47H5 v.5) VH: EVQLVESGGGLVQPGGSLRLSCAASGFTFSDYGIAWVRQAPGKGLEWVAFISDLAYTIYYADTVTGRFTISRDNSKNTLYLQMNSLRAEDTAVYYCARDNWDAMDYWGQGTLVTVSS VL: DIQMTQSPSSLSASVGDRVTITCRSSQSLVHNNANTYLHWYQQKPGKAPKLLIYKVSNRFSGVPSRFSGSGSGTDFTLTISSLQPEDFATYYCSQNTLVPWTFGQGTKVEIKR : no binding
humanized anti-IgE/M1′ antibody 7A6.v1 (antibody, V domains shown, direct CDR graft, huIgG1; also called 7A6v1 huIgG1; 7A67v1 [sic]) VH: EVQLVESGGGLVQPGGSLRLSCAASGYTFIDYEMHWVRQAPGKGLEWVGAIDPETGTTAYNQKFKGRFTISADTSKNTAYLQMNSLRAEDTAVYYCTRLRPHYDYDNAMDSWGQGTLVTVSS VL: DIQMTQSPSSLSASVGDRVTITCKSSQTLLYSTNQKNYLAWYQQKPGKAPKLLIYWASTRESGVPSRFSGSGSGTDFTLTISSLQPEDFATYYCQQYYSYPYTFGQGTKVEIKR : binds
humanized anti-IgE/M1′ antibody 26A11.v6 (antibody, V domains shown, huIgG1; also called 26A11v6 huIgG1) VH: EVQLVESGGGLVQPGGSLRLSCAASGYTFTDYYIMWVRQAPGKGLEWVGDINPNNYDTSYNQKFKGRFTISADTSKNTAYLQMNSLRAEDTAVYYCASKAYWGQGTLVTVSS VL: DIQMTQSPSSLSASVGDRVTITCRSSQDISNYLNWYQQKPGKAPKLLIYSTSRLHSGVPSRFSGSGSGTDFTLTISSLQPEDFATYYCQQGHTLPWTFGQGTKVEIKR : no binding
